// data source = patent US6943179B2

target: FXa (Homo sapiens, UniProt P00742)
Sequence (P00742 235-488 limits assumed): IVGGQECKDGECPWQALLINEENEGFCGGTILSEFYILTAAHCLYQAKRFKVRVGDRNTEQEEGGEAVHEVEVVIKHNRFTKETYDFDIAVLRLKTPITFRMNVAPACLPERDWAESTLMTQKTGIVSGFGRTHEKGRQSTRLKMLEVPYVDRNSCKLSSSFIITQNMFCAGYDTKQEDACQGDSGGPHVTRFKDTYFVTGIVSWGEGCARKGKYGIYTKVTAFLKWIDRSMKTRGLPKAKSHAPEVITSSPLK
Sequence (P00742 41-179 limits assumed): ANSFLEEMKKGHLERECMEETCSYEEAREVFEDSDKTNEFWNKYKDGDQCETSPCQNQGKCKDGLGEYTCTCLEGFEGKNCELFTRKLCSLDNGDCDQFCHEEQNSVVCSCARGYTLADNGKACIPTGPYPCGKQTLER
pIC50: −log10 of the molar value.

structure_smiles: O=C(Nc1ccc(Cl)cc1)NN(C(=O)Nc1ccc(N2CCCCC2=O)cc1)c1ccc(Cl)cc1
target_entity: FXa (Homo sapiens, UniProt P00742)
pIC50: 6.17
